# Tested On: PTGDR2 (Homo sapiens, UniProt Q9Y5Y4)
# Construct: purchased Promega (in-house HiBiT-GPCR construct library, NanoBRET)
# Sequence (Q9Y5Y4 whole entry): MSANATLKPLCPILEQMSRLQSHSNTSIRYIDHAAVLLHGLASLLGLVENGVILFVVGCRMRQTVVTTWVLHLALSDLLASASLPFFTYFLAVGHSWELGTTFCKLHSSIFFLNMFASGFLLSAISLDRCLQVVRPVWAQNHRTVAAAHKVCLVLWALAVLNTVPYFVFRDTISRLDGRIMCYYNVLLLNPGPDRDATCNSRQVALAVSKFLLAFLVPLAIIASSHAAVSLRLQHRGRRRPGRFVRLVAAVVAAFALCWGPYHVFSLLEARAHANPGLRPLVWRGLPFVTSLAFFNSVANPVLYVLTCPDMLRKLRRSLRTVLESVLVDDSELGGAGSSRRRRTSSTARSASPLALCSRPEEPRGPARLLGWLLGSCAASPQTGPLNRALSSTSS
# Assay: NanoBRET screen HiBiT-PTGDR2 in HEK293
# Format: binding
# Condition: PTGDR2; tracer 1μM
Result Type: NanoBRET Fold Response
The response must contain the number and no unit.

1) CCCn1c(=O)c2[nH]c(-c3ccc(OCC(=O)NCCNC(=O)CCOCCNC(=O)c4ccc(CNC(=O)CCc5ccc6n5[B-](F)(F)[N+]5=C(c7ccc[nH]7)C=CC5=C6)cc4)cc3)nc2n(CCC)c1=O: 1.06

Challenge: State, in one line, measured NanoBRET Fold Response of "CC(C)N(CC[C@H](c1ccccc1)c1cc(CCNC(=O)CCOCCOCCOCCOCCNC(=O)CCc2ccc3n2[B-](F)(F)[N+]2=C(c4ccc[nH]4)C=CC2=C3)ccc1O)C(C)C"
Response given: 0.99

Challenge: State, in one line, measured NanoBRET Fold Response of "O=C(CCOCCOCCOCCOCCNC(=O)CCc1ccc2n1[B-](F)(F)[N+]1=C(c3ccc[nH]3)C=CC1=C2)NCCCN1CCN(C2=Nc3ccccc3Oc3ccc(Cl)cc32)CC1"
Response given: 1.04

Challenge: State, in one line, measured NanoBRET Fold Response of "Cc1cc2c(s1)Nc1ccccc1N=C2N1CCN(CCCNC(=O)CCOCCOCCOCCOCCNC(=O)CCc2ccc3n2[B-](F)(F)[N+]2=C(c4ccc[nH]4)C=CC2=C3)CC1"
Response given: 0.96

----------
Recorded NanoBRET Fold Response by entry
# Tested On: CCR1 (Homo sapiens, UniProt P32246)
# Construct: purchased Promega (in-house HiBiT-GPCR construct library, NanoBRET)
# Sequence (P32246 1-355): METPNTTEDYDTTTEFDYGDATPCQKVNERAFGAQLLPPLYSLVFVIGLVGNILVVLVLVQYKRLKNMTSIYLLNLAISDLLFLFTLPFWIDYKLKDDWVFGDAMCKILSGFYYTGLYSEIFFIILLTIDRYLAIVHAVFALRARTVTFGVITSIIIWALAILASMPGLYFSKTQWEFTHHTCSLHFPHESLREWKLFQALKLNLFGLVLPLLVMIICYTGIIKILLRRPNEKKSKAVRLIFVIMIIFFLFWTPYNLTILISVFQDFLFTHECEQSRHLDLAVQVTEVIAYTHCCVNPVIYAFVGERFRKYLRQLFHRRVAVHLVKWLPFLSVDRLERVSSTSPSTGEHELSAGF
# Assay: NanoBRET screen HiBiT-CCR1 in HEK293
# Assay type: binding
# Condition: CCR1; tracer 0.1μM
The response must contain the number and no unit.

1. O=C(CCc1ccc2n1[B-](F)(F)[N+]1=C(c3ccc[nH]3)C=CC1=C2)NCc1ccc(C(=O)NCCOCCC(=O)N[C@@H]2CC[C@@]3(O)[C@H]4Cc5ccc(O)c6c5[C@@]3(CCN4CC3CC3)[C@H]2O6)cc1 [Naltrexone-3-NB590]: 1.03
2. O=C(CCc1ccc2n1[B-](F)(F)[N+]1=C(c3ccc[nH]3)C=CC1=C2)NCCOCCOCCNC(=O)OCCOCCN1CCN(C2=Nc3ccccc3Sc3ccccc32)CC1: 0.99
3. N#CN=C(NCCCOc1cccc(CN2CCCCC2)c1)NCCNC(=O)CCOCCOCCOCCOCCNC(=O)CCc1ccc2n1[B-](F)(F)[N+]1=C(c3ccc[nH]3)C=CC1=C2: 0.95
4. CC(C)N(CC[C@H](c1ccccc1)c1cc(CCNC(=O)CCOCCOCCOCCOCCNC(=O)CCc2ccc3n2[B-](F)(F)[N+]2=C(c4ccc[nH]4)C=CC2=C3)ccc1O)C(C)C: 0.97

Shifting focus to the compound that follows.
Challenge: State, in one line, measured NanoBRET Fold Response of "COc1ccccc1N1CCN(CCCCN2C(=O)c3ccc(CNC(=O)CCOCCOCCOCCOCCNC(=O)CCc4ccc5n4[B-](F)(F)[N+]4=C(c6ccc[nH]6)C=CC4=C5)cc3C2=O)CC1"
Response given: 1.01
